- ASSAYED_SYSTEM: 2C11 human monoclonal antibody
- PROTOCOL_DETAILS: competition ELISA: 2C11 preincubated with peptide at 20 (µM per paragraph 93), then on immobilised FVIII
Where no end group is shown, it is not given here.
QUANTITY_NAME: % inhibition (%)

Solved cases (3 shown):
BINDER	% inhibition [%]
Ac-CMKWSNRSSRWC (cysteine pairing not given here) [peptide 106 (…)]	22
Ac-RCHAWSNRKSCV (cysteine pairing not given here) [peptide 109 (…)]	37.5
Ac-ECGSHAWGRRCK (cysteine pairing not given here) [peptide 104 (…)]	30.7

I: Ac-KCGRWSNRSSCT (cysteine pairing not given here) [peptide 103 (…)]
II: Ac-SCHAWSNRRTCR (cysteine pairing not given here) [peptide 107 (…)]
III: Ac-CSKWHNRSKRHC (cysteine pairing not given here) [peptide 105 (…)]
Order by % inhibition, ascending. Answer by naming the labels in the order asked.
I, III, II

Cited source: patent US20050124544A1
